target_system: purified VDAC1 (Homo sapiens, UniProt P21796)
Sequence (P21796 whole entry, species assumed): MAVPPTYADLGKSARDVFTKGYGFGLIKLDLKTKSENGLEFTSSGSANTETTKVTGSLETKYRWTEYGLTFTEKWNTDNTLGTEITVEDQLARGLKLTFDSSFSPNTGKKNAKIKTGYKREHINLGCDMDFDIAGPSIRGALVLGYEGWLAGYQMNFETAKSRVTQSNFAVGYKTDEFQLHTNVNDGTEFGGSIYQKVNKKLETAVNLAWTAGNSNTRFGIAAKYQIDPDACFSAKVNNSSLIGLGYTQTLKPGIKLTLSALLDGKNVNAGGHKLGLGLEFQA
assay_details: Glass-bound peptide array probed with purified VDAC1 and anti-VDAC1 antibodies
Type: binding
Set-up: key: +: low; ++: medium; +++: high
test_settings: glass-bound peptide array incubated 4 h with purified VDAC1 (64 nM); antibody against VDAC1 N-terminus; chemiluminescence
property_name: Spot intensity, detected using anti-N-terminus VDAC1

Worked cases, answers included:
| query_sequence | observed |
| --- | --- |
| EQGVLSFWRGNLANVIRYFPTQALN [1F19, array peptide from ANT3] | +++ |
| FPTQALNFAFKDKYKQIFLGGVDKH [1F21, array peptide from ANT3] | +++ |
| ISAMVLTKMKETAEAYLGKKVTHAV [2K10, array peptide from BiP1] | ++ |
| GGGPTSSEQIMKTGALLLQGFIQDR [1A21, array peptide from BAX] | + |
| IFVGIKKKEERADLIAYLKKATNE [1D15, array peptide from cytochrome c] | ++ |
| TPPPAEEEEDELYRQSLEIISRYLR [2D22, array peptide from Mcl-1] | ++ |

Shifting focus to the sequence that follows.
Which value of Spot intensity, detected using anti-N-terminus VDAC1 has been reported for IEIESFYEGEDFSETLTRAKFEELN [2L4, array peptide from BiP1] in the records?
+

* * *

target_system: purified VDAC1 (Homo sapiens, UniProt P21796)
assay_details: Glass-bound peptide array probed with purified VDAC1 and anti-VDAC1 antibodies
Format: binding
Set-up: key: +: low; ++: medium; +++: high
test_settings: glass-bound peptide array incubated 4 h with purified VDAC1 (64 nM); antibody against VDAC1 N-terminus; chemiluminescence
property_name: Spot intensity, detected using anti-N-terminus VDAC1

| query_sequence | target_system | observed |
| --- | --- | --- |
| FVDWCPTGFKVGINYQPPTVVPGGD [2B2, array peptide from tubulin alpha 1b] | purified VDAC1 (Homo sapiens, UniProt P21796) | + |
| SKLVLKALCTKVPELIRTIMGWTLD [1B9, array peptide from BAX] | purified VDAC1 (Homo sapiens, UniProt P21796) | + |
| TDVLLLDVTPLSLGIETLGGVFTKL [2O19, array peptide from HSP-70] | purified VDAC1 (Homo sapiens, UniProt P21796) | ++ |
| HSSYPAGTEDDEGMGEEPSPFRGRS [1A9, array peptide from BAD] | purified VDAC1 (Homo sapiens, UniProt P21796) | ++ |
| IMKTGALLLQGFIQDRAGRMGGEAP [1A22, array peptide from BAX] | purified VDAC1 (Homo sapiens, UniProt P21796) | +++ |

Which value of Spot intensity, detected using anti-N-terminus VDAC1 has been reported for SSWTRVFQSWWDRNLGRGSSAPSQ [1A17, array peptide from BAD] in the records?
+

What would you report for TAFQGMLRKLDIKNEDDVKSLSRVM [2E5, array peptide from Mcl-1] ?
+

What would you report for RGPTAARHQDSWNGLSHEAFRLVSR [2M21, array peptide from HSP-70] ?
+

What would you report for AVIGGSAGASPPSTLTPDSRRVARP [2D10, array peptide from Mcl-1] ?
+

What would you report for IMGWTLDFLRERLLGWIQDQGGWGL [1B11, array peptide from BAX] ?
+++

What would you report for GKEPAHLMSLFGGKPMIIYKGGTSR [2I13, array peptide from gelsolin isoform b] ?
+

* * *

target_system: purified VDAC1 (Homo sapiens)
assay_details: Glass-bound peptide array probed with purified VDAC1 and anti-VDAC1 antibodies
Assay type: binding
Design: key: +: low; ++: medium; +++: high
test_settings: glass-bound peptide array incubated 4 h with purified VDAC1 (64 nM); antibody against VDAC1 N-terminus; chemiluminescence
property_name: Spot intensity, detected using anti-N-terminus VDAC1

Worked cases, answers included:
| query_sequence | observed |
| --- | --- |
| AGATSSLTPSRGPVSPSVSFQPLAR [1K9, array peptide from MAVS] | +++ |
| QGCLASVGVLTQSCTTPHLHSILKA [2F13] | ++ |
| PYQLTWGRPSTRIQQQLGQLTLENL [2F24] | +++ |
| LVFHSFGGGTGSGFTSLLMERLSVD [2A3, array peptide from tubulin alpha 1b] | +++ |
| ASIHGYLGIVELLVSLGADVNAQEP [2F17] | ++ |

Quick check: Spot intensity, detected using anti-N-terminus VDAC1 on purified VDAC1 (Homo sapiens), item FRGLGDCLVKITKSDGIRGLYQGFS [1G5, array peptide from ANT3] ?
+++

What would you report for EDFSETLTRAKFEELNMDLFRSTMK [2L5, array peptide from BiP1] ?
+

What would you report for DDEGMGEEPSPFRGRSRSAPPNLWA [1A10, array peptide from BAD] ?
++

What would you report for KGLPRPKSAGTATQMRQSSSWTRVF [1A15, array peptide from BAD] ?
++

What would you report for AKYDDIKKVVKQASEGPLKGILGYT [2C18, array peptide from GAPDH1] ?
+++

* * *

target_system: purified VDAC1 (Homo sapiens)
assay_details: Microscale thermophoresis (MST)
Format: binding
test_settings: fluorescently labeled VDAC1 66 nM, peptide 2.5-30 µM, 30 min at 37 °C; read-out: Kd
No end group written: not given here.
property_name: pKd
Expect pKd as a plain number equal to -log10 of the molar concentration.

Quick check: pKd on purified VDAC1 (Homo sapiens), item NEFGYSNRVVDLMAHMASKE [2D1] ?
5.10

* * *

target_system: purified VDAC1 (Homo sapiens)
assay_details: Glass-bound peptide array probed with purified VDAC1 and anti-VDAC1 antibodies
Type: binding
Design: key: +: low; ++: medium; +++: high
test_settings: glass-bound peptide array incubated 4 h with purified VDAC1 (64 nM); antibody against VDAC1 amino acids 150-250; chemiluminescence
property_name: Spot intensity, detected using anti-VDAC1 internal sequence

Worked cases, answers included:
| query_sequence | observed |
| --- | --- |
| IEDFKAKKKELEEIVQPIISKLYGS [2M14, array peptide from BiP1] | ++ |
| VSSITASLRFDGALNVDLTEFQTNL [2A14, array peptide from tubulin alpha 1b] | +++ |
| FDGALNVDLTEFQTNLVPYPRIHFP [2A15, array peptide from tubulin alpha 1b] | ++ |
| LDIERPTYTNLNRLISQIVSSITAS [2A12, array peptide from tubulin alpha 1b] | ++ |
| ERPLTKDNHLLGTFDLTGIPPAPRG [2L22, array peptide from BiP1] | + |
| KIISNASCTTNCLAPLAKVIHDNFG [2C6, array peptide from GAPDH1] | ++ |
| IFVGIKKKEERADLIAYLKKATNE [1D15, array peptide from cytochrome c] | + |
| ASIHGYLGIVELLVSLGADVNAQEP [2F17] | + |

Which value of Spot intensity, detected using anti-VDAC1 internal sequence has been reported for TGSGFTSLLMERLSVDYGKKSKLEF [2A4, array peptide from tubulin alpha 1b] in the records?
+

* * *

target_system: purified VDAC1 (Homo sapiens, UniProt P21796)
assay_details: Glass-bound peptide array probed with purified VDAC1 and anti-VDAC1 antibodies
Format: binding
Parameters: key: +: low; ++: medium; +++: high
test_settings: glass-bound peptide array incubated 4 h with purified VDAC1 (64 nM); antibody against VDAC1 amino acids 150-250; chemiluminescence
property_name: Spot intensity, detected using anti-VDAC1 internal sequence

| query_sequence | target_system | observed |
| --- | --- | --- |
| AKYDDIKKVVKQASEGPLKGILGYT [2C18, array peptide from GAPDH1] | purified VDAC1 (Homo sapiens, UniProt P21796) | ++ |
| DQGGWGLPLAESLKRLMSLSPGRPP [1B13, array peptide from BAX] | purified VDAC1 (Homo sapiens, UniProt P21796) | + |
| LLGTFDLTGIPPAPRGVPQIEVTFE [2L23, array peptide from BiP1] | purified VDAC1 (Homo sapiens, UniProt P21796) | + |

* * *

target_system: purified VDAC1 (Homo sapiens)
assay_details: Glass-bound peptide array probed with purified VDAC1 and anti-VDAC1 antibodies
Type: binding
Parameters: key: +: low; ++: medium; +++: high
test_settings: glass-bound peptide array incubated 4 h with purified VDAC1 (64 nM); antibody against VDAC1 N-terminus; chemiluminescence
property_name: Spot intensity, detected using anti-N-terminus VDAC1

| query_sequence | observed |
| --- | --- |
| SPFRGRSRSAPPNLWAAQRYGRELR [1A11, array peptide from BAD] | + |
| TEDELPYDDCVFGGQRLTL [2G6] | + |
| VDCIVRIPKEQGVLSFWRGNLANVI [1F18, array peptide from ANT3] | ++ |
| RERLLGWIQDQGGWGLPLAESLKRL [1B12, array peptide from BAX] | +++ |
| PASTGAAKAVGKVIPELNGKLTGMA [2C13, array peptide from GAPDH1] | + |

Which value of Spot intensity, detected using anti-N-terminus VDAC1 has been reported for MGKVKVGVNGFGRIGRLVTRAAFNS [2B14, array peptide from GAPDH1] in the records?
+++

What would you report for ALSSQHQARIEIESFYEGEDFSETL [2L3, array peptide from BiP1] ?
++

What would you report for ERPLTKDNHLLGTFDLTGIPPAPRG [2L22, array peptide from BiP1] ?
++

What would you report for GRTWNDPSVQQDIKFLPFKVVEKKT [2K5, array peptide from BiP1] ?
+

What would you report for KCELSSSVQTDINLPYLTMDSSGPK [2O6, array peptide from HSP-70] ?
+

What would you report for STRIQQQLGQLTLENLQMLPESEDE [2G1] ?
++

What would you report for VGKSGTEREFRGLGDCLVKITKSDG [1G4, array peptide from ANT3] ?
+++

The measured values listed here are drawn from paper PMC12669278.
